Data origin, for the record: patent US20250223284A1

TARGET_ENTITY: human DPP1 enzyme (Homo sapiens (Human))
Sequence (P53634 25-134): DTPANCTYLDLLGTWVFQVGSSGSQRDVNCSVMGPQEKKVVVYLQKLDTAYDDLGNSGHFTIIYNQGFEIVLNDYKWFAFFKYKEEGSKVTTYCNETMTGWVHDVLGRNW
Sequence (P53634 231-394): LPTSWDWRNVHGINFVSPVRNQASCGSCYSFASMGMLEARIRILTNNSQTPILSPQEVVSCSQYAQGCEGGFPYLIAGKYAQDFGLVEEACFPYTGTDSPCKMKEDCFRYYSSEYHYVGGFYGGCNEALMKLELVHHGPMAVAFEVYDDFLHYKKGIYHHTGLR
Sequence (P53634 395-463): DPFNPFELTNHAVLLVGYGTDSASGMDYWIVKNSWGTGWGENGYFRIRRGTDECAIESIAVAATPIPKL
ASSAY_COMMENT: Human DPP1 Enzyme IC50 Assay
DETAILS: recombinant human DPP1 activated with cathepsin L, H-Gly-Arg-AMC substrate, 10 min pre-incubation at 37° C., MES pH 6.0
pIC50: −log10 of the molar value.
READOUT_NAME: pIC50

CCO[C@@H]1CCNC[C@@H](C(=O)N[C@H](C#N)Cc2ccc(-c3ccc4oc(=O)n(C)c4c3)cc2)OC1 (single isomer, unassigned) [drawing 544]: 8.31
Cn1c(=O)oc2ccc(-c3ccc(C[C@@H](C#N)NC(=O)[C@@H]4CNC[C@@](C)(O)CO4)cc3)cc21 (relative stereo): 7.40
Cn1c(=O)oc2ccc(-c3ccc(C[C@@H](C#N)NC(=O)[C@@H]4CCCCCNC4)cc3)cc21 [drawing 550]: 6.22
Cn1c(=O)oc2ccc(-c3ccc(C[C@@H](C#N)NC(=O)C4CCCCCNC4)cc3)cc21 (stereo partly drawn) [drawing 512]: 7.21
Cn1c(=O)oc2ccc(-c3ccc(C[C@@H](C#N)NC(=O)[C@H]4CCCCCNC4)c(F)c3)cc21 (single isomer, unassigned) [drawing 549]: 6.85
Cn1c(=O)oc2ccc(-c3ccc(C[C@@H](C#N)NC(=O)C4CCCC(O)CNC4)cc3)cc21 (single isomer, unassigned): 6.64
CCO[C@H]1CCNC[C@@H](C(=O)N[C@H](C#N)Cc2ccc(-c3ccc4oc(=O)n(C)c4c3)cc2)OC1 (single isomer, unassigned): 6.34
Cn1c(=O)oc2ccc(-c3ccc(C[C@@H](C#N)NC(=O)[C@@H]4CNC[C@@H](O)CCO4)cc3)cc21 (single isomer, unassigned): 6.70
Cn1c(=O)oc2ccc(-c3ccc(C[C@@H](C#N)NC(=O)[C@@H]4CNCC(O)(C(F)(F)F)CO4)cc3)cc21 (single isomer, unassigned): 5.43
Cn1c(=O)oc2ccc(-c3ccc(C[C@@H](C#N)NC(=O)[C@@H]4CNC[C@](C)(O)CO4)cc3)cc21 (single isomer, unassigned) [drawing 514]: 6.50
Cn1c(=O)oc2ccc(-c3ccc(C[C@@H](C#N)NC(=O)[C@@H]4CNCC5(CCO5)CO4)cc3)cc21 (single isomer, unassigned) [drawing 530]: 8.38
Cn1c(=O)oc2ccc(-c3ccc(C[C@@H](C#N)NC(=O)[C@@H]4CNCC[C@H](O)CO4)cc3)cc21 (single isomer, unassigned): 7.17
CO[C@H]1CCNC[C@@H](C(=O)N[C@H](C#N)Cc2ccc(-c3ccc4oc(=O)n(C)c4c3)cc2)OC1 (single isomer, unassigned) [drawing 547]: 7.13
Cn1c(=O)oc2ccc(-c3ccc(C[C@@H](C#N)NC(=O)[C@@H]4CNCC5(CCCO5)CO4)cc3)cc21 (single isomer, unassigned): 7.02
CCO[C@@H]1CCO[C@H](C(=O)N[C@H](C#N)Cc2ccc(-c3ccc4oc(=O)n(C)c4c3)cc2)CNC1 (single isomer, unassigned): 7.57
Cn1c(=O)oc2ccc(-c3ccc(C[C@@H](C#N)NC(=O)[C@@H]4CNC[C@]5(CCO5)CO4)cc3)cc21 (single isomer, unassigned): 6.14
CO[C@]1(C)CNC[C@@H](C(=O)N[C@H](C#N)Cc2ccc(-c3ccc4oc(=O)n(C)c4c3)cc2)OC1 (relative stereo): 6.69
C=C[C@]1(O)CNC[C@@H](C(=O)N[C@H](C#N)Cc2ccc(-c3ccc4oc(=O)n(C)c4c3)cc2)OC1 (single isomer, unassigned): 5.83
Cn1c(=O)oc2ccc(-c3ccc(C[C@@H](C#N)NC(=O)C4CCCCCNC4)cc3)cc21 (stereo partly drawn) [I-A]: 7.14
